molecular target: murine BACE1 ECD; assay: cell-based or functional assay; note: test concentration or dose not given here
Sequence (single chain, as listed by the source limits assumed): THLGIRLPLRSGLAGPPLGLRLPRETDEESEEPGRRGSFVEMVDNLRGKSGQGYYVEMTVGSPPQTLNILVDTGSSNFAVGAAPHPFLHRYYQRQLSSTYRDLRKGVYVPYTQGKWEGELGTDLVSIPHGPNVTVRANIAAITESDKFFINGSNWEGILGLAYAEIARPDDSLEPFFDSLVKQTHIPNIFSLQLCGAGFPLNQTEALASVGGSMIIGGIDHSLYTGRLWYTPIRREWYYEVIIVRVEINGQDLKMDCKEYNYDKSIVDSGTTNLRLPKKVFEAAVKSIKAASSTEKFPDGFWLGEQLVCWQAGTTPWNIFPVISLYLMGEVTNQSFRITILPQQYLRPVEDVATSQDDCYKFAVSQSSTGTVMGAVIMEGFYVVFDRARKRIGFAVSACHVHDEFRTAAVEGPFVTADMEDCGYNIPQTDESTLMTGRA
READOUT: % inhibition of BACE1 activity, short FRET substrate
Please provide the amount together with its unit, number first.

Consider the following illustrative entries.
5888 (antibody, V domains shown, anti-BACE1 IgG) VH: QVQLVQSGAEVKKPGSSVKVSCKASGGTFWKYAISWVRQAPGQGLEWMGNIIPGFGTANYAQKFRGRVTITADESTSTAYMELSSLRSEDTAVYYCARSGGTKYGMLDVWGQGTMVTVSS VL: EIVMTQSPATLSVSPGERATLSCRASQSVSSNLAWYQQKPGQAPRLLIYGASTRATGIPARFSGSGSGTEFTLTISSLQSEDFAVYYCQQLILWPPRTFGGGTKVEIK; -183%
5892 (antibody, V domains shown, anti-BACE1 IgG) VH: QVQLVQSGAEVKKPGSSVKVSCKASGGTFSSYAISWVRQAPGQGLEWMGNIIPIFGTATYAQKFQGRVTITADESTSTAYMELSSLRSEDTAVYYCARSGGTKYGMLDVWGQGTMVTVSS VL: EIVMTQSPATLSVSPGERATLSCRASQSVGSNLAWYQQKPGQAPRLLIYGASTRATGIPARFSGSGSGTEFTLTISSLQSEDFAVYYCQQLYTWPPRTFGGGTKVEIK; 64%
5883 (antibody, V domains shown, anti-BACE1 IgG) VH: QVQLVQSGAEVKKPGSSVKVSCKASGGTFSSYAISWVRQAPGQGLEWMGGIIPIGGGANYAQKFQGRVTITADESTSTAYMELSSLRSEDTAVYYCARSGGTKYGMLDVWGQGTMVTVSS VL: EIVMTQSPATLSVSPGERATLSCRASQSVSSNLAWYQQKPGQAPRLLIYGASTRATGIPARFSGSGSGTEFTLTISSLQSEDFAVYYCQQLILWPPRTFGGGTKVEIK; -275%
5878 (antibody, V domains shown, anti-BACE1 IgG) VH: EVQLLESGGGLVQPGGSLRLSCAASGFTFSSYAMSWVRQAPGKGLEWVSAISGSGISTPYADSVKGRFTISRDNSKNTLYLQMNSLRAEDTAVYYCAKGAGHGSYVKGWFDPWGQGTLVTVSS VL: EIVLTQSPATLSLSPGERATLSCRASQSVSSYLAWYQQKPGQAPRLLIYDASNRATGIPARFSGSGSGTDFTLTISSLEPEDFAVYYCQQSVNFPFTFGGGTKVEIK; 98%

Next up:
Fill in % inhibition of BACE1 activity, short FRET substrate for record 5893 (antibody, V domains shown, anti-BACE1 IgG) VH: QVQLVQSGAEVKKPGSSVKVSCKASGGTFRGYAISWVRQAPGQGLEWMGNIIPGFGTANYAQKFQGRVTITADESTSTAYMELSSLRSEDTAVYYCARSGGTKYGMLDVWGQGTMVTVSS VL: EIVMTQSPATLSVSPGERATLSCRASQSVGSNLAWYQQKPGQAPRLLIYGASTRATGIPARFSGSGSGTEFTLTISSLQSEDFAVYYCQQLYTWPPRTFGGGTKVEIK
69%
